// data source = PubChem BioAssay (Tox21)

Method: qHTS assay to identify small molecule antagonists of the retinoid acid receptor (RAR) signaling pathway - cell viability counter screen (AID 1159551); note: nearly all actives have a fitted effect of over 35% in size
Conditions Used: C3RL4 cells viability, ATP luminescence (CellTiter-Glo), 6 h; series mostly up to 92.4 µM
Inconclusive results are not listed. Calls of active or inactive are those of the source. Calls come from the whole dose curve; as a rule, active = well fitted cell-killing curve with a large enough effect in the repeat runs; inconclusive = weak or mixed curves, or effect the other way; inactive = flat fitted curve, though single readings scatter.
Recorded Metric: outcome

Some solved cases for reference:
CC(C)=CC1C(C(=O)OCc2coc(Cc3ccccc3)c2)C1(C)C (stereo not given); inactive
Clc1nc(Cl)nc(Cl)n1; inactive
N#Cc1cc(Br)c(O)c(Br)c1; inactive
O=C1C=CC(=O)C=C1; inactive
CCOP(=S)(OCC)O/N=C(\C#N)c1ccccc1; inactive
CC(C)Oc1cc(-n2nc(C(C)(C)C)oc2=O)c(Cl)cc1Cl; inactive
c1ccc(NNc2ccccc2)cc1; inactive
NNC(N)=S; inactive

Lab note: measured outcome of `CNC(=O)N(C)c1nnc(C(C)(C)C)s1` was inactive

Lab note: measured outcome of CCCCC(CC)COC(=O)Cl (stereo not given) was inactive

----------
Method: A CellTox Green Cytotoxicity Assay to monitor cytotoxicity in HepG2 cells - 40 hour (AID 1224879); note: nearly all actives have a fitted effect of over 40% in size
Conditions Used: CellTox Green fluorescence; series mostly up to 76.8 µM
Inconclusive results are not listed. Calls of active or inactive are those of the source. The call rests on the fitted dose curve; in most records, active means well fitted activation curve with a large enough effect in the repeat runs; inconclusive means weak or mixed curves; inactive means flat fitted curve, though single readings scatter.
Recorded Metric: outcome

Some solved cases for reference:
COc1ccc(C(CN(C)C)C2(O)CCCCC2)cc1 (configuration not stated); inactive
CCC(C)c1cc([N+](=O)[O-])cc([N+](=O)[O-])c1O (configuration not stated); inactive
CCOC(=O)C(C)OC(=O)c1cc(Oc2ccc(C(F)(F)F)cc2Cl)ccc1[N+](=O)[O-] (configuration not stated); inactive
O=Cc1ccco1; inactive

Lab note: measured outcome of `CN(C)C(=O)Nc1ccc(Cl)cc1` was inactive

Lab note: measured outcome of `O=C(CCl)c1ccccc1` was inactive

Lab note: measured outcome of `CCOc1cc(C=O)ccc1O` was inactive

Lab note: measured outcome of `CCN(CC)N=O` was inactive

Lab note: measured outcome of `Nc1ccc(-c2ccccc2)cc1` was inactive

Lab note: measured outcome of `CCOc1cc(Oc2ccc(C(F)(F)F)cc2Cl)ccc1[N+](=O)[O-]` was inactive

Lab note: measured outcome of `N#CCCCl` was inactive

Lab note: measured outcome of `c1nc[nH]n1` was inactive

Lab note: measured outcome of `Nc1c(Cl)cc([N+](=O)[O-])cc1Cl` was inactive

Lab note: measured outcome of `O=S(=O)(Oc1ccc(Cl)cc1)c1ccc(Cl)cc1` was inactive

Lab note: measured outcome of `O=C(O)C(F)(F)C(F)(F)C(F)(F)C(F)(F)C(F)(F)C(F)(F)C(F)(F)F` was inactive

Lab note: measured outcome of `COP(=S)(OC)Oc1ccc([N+](=O)[O-])cc1` was inactive

Lab note: measured outcome of `c1ccc(NNc2ccccc2)cc1` was inactive

Lab note: measured outcome of `COP(=S)(OC)Oc1cc(Cl)c(Cl)cc1Cl` was inactive

----------
Method: qHTS assay to identify small molecule antagonists of the peroxisome proliferator-activated receptor gamma (PPARg) signaling pathway - cell viability counter screen (AID 743194); note: nearly all actives have a fitted effect of over 55% in size
Conditions Used: PPARg-bla HEK293H viability, CellTiter-Glo luminescence, 17 h; co-treated with 50 nM rosiglitazone unless noted; series mostly up to 62.6 µM
Records with an inconclusive call do not appear. Activity calls are given as the source filed them. The call rests on the fitted dose curve; in most records, active means well fitted cell-killing curve with a large enough effect in the repeat runs; inconclusive means weak or mixed curves, or effect the other way; inactive means no such curve, though single readings can be large or run the other way.
Recorded Metric: outcome

O=C(O)CC[N+](=O)[O-]; inactive
Cc1cccc(N)c1N; inactive
N#CC(Br)Br; inactive
